- System: NCI-H460
- protocol notes: NCI tumour cell line growth inhibition, 48 h
The source made the active and inactive calls. Rule as the data show it: active = GI50 up to about 1.1 µM and inactive = higher.
Listed molecules paired with reported GI50

molecule: CC(=O)OC1C(=O)C(O)C(C)OC1O[C@@H]1C[C@@]2(C)[C@@H]3CC=C4[C@@H](C[C@H](O)C(=O)C4(C)C)[C@]3(C)C(=O)C[C@]2(C)[C@H]1[C@@](C)(O)C(=O)/C=C/C(C)(C)O (stereo not given in full)
result value: 1.98 µM (inactive)
//
molecule: O=[N+]([O-])c1ccc(NSc2ccccc2)cc1
result value: 18.3 µM (inactive)
//
molecule: Cn1cc(S(=O)(=O)NC(=O)Nc2ccc(Cl)cc2)c(=O)c2ccc(F)cc21
result value: > 100 µM (inactive)
//
molecule: O=C(Cn1c(C(=O)/C=C/c2ccc(Cl)c(Cl)c2)nc2ccccc21)c1ccccc1
result value: 16.2 µM (inactive)

Then there is this molecule:
Return GI50 (reported value) for this molecule: CC(=O)NC1=C(C)C(=O)c2c(nc3n2CCC3OC(=O)c2ccccc2)C1=O (stereo not given)
2.37 µM (inactive)
